# Vd listing for each entry below
# method: Volume of distribution at steady state in rat at 1 mg/kg, iv
# Assay type: ADME, organism-based
# Parameters: dose 1 mg/kg, route intravenous
# assay_context: in vivo, read-out: Vdss
property_name: Vd

                                  structure     result
0  COc1ccc(S(=O)(=O)c2ccc(F)cc2)c(Cc2c3c(n(CC(=O)O)c2C)CCNC3=O)c1  0.31 L/kg
1  Cc1c(Cc2ccccc2S(=O)(=O)c2ccc(F)cc2)c2c(n1CC(=O)O)CCNC2=O  0.19 L/kg
2  Cc1c(Cc2ccccc2S(=O)(=O)c2ccccc2)c2c(n1CC(=O)O)CC(C)(C)NC2=O  0.19 L/kg
